- Test system: MDAMB231
- METHOD DESCRIPTION: normalised growth rate inhibition (GR value) relative to DMSO control (GR (1 = untreated growth, 0 = cytostasis, <0 = cytotoxic)); higher = less growth inhibition
- TEST SETTINGS: 0.12 µM; 72 h
For each record, write down the corresponding normalised growth rate inhibition.

Task: Provide the documented normalised growth rate inhibition with MDAMB231 as the system for CC(C)CC(=O)Nc1n[nH]c2c1CN(C(=O)C1CCN(C)CC1)C2(C)C
Result: 0.211

Task: Provide the documented normalised growth rate inhibition with MDAMB231 as the system for Cc1[nH]c(/C=C2\C(=O)Nc3ccc(S(=O)(=O)Cc4c(Cl)cccc4Cl)cc32)c(C)c1C(=O)N1CCC[C@@H]1CN1CCCC1
Result: 1.02

Task: Provide the documented normalised growth rate inhibition with MDAMB231 as the system for Cn1c(=O)n(-c2ccc(C(C)(C)C#N)cc2)c2c3cc(-c4cnc5ccccc5c4)ccc3ncc21
Result: 0.301

Task: Provide the documented normalised growth rate inhibition with MDAMB231 as the system for Cc1cc(C(=O)NOCCO)c(Nc2ccc(I)cc2F)n(C)c1=O
Result: 0.0627

Task: Provide the documented normalised growth rate inhibition with MDAMB231 as the system for C=CC(=O)Nc1cc(-n2c(=O)ccc3cnc4ccc(-c5cn[nH]c5)cc4c32)ccc1C
Result: 0.834

Task: Provide the documented normalised growth rate inhibition with MDAMB231 as the system for C[C@@H]1C[C@H]2O[C@@H]2/C=C\C=C\C(=O)Cc2c(Cl)c(O)cc(O)c2C(=O)O1
Result: 0.744

Task: Provide the documented normalised growth rate inhibition with MDAMB231 as the system for CCC(=O)N1CCN(c2ccc(-n3c(=O)ccc4cnc5ccc(-c6cnc7ccccc7c6)cc5c43)cc2C(F)(F)F)CC1
Result: 0.339

Task: Provide the documented normalised growth rate inhibition with MDAMB231 as the system for COc1cc2ncnc(-n3nc(-c4ccccn4)nc3N)c2cc1OC
Result: 1.02
